# Assay name: Solubility Evaluation 1: anthracene compounds in various solvents, visual check
# Type: physicochemical
# Set-up: key: A: it was confirmed that the compounds were dissolved in the dropped solvents; C: the compounds were not completely dissolved and undissolved residues remained
# Setup conditions: 30 mg compound, 1 g solvent, visual check
Measured metric: Solubility in Cyclohexanone

>  <Chemical structure>
c1ccc(-c2ccc3ccc(-c4c5ccccc5c(-c5cccc(-c6ccc7ccccc7c6)c5)c5ccccc45)cc3c2)cc1

>  <Measured metric>
Solubility in Cyclohexanone

>  <Obs value>
A

$$$$
>  <Chemical structure>
c1cc(-c2ccc3ccccc3c2)cc(-c2c3ccccc3c(-c3ccc4ccccc4c3)c3ccccc23)c1

>  <Measured metric>
Solubility in Cyclohexanone

>  <Obs value>
A

$$$$
>  <Chemical structure>
c1ccc(-c2ccc(-c3c4ccccc4c(-c4ccc(-c5ccccc5)cc4)c4ccccc34)cc2)cc1

>  <Measured metric>
Solubility in Cyclohexanone

>  <Obs value>
C

$$$$
